# Test system: chloroquine-resistant W2 strain of Plasmodium falciparum
# method.notes: Antiplasmodial activity, growth inhibition by flow cytometry
# Format: cell-based
# cond: Plasmodium falciparum, W2, chloroquine-resistant W2 strain, Figure 1; read-out: IC50
experimental.endpoint: IC50

Please look up its IC50: `O=C1c2ccc(N3CCN(CCO)CC3)cc2C(=O)N1CCCNc1ccnc2cc(Cl)ccc12`
6.6 nM

Here is another molecule to look at.
Please look up its IC50: C[C@@H]1CC[C@H]2[C@@H](C)C(=O)O[C@@H]3O[C@@]4(C)CC[C@@H]1[C@]32OO4 [ART, Artemisinin, reference compound]
5.3 nM

====

# Test system: Vero cells
# method.notes: Cytotoxicity assay (resazurin cell viability)
# Format: cell-based
# cond: mammalian Vero cells, 24 h incubation, resazurin; read-out: IC50 (μM cytotoxicity)
// NB: equality with 100 µM counts as no (0); only IC50 strictly below is yes (1)

Use the examples below as a reference point.
I'd appreciate it if you could check whether O=C1c2cccc(N3CCOCC3)c2C(=O)N1CCCCNc1ccnc2cc(Cl)ccc12 [4k] has IC50 smaller than 100 µM.
no (0)

Proceed to O=C1c2cccc(N3CCCCC3)c2C(=O)N1CCCCCCNc1ccnc2cc(Cl)ccc12 [4d]
no (0)

Proceed to O=C1c2cccc(N3CCCCC3)c2C(=O)N1CCCCNc1ccnc2cc(Cl)ccc12 [4c]
yes (1)

Proceed to O=C1c2cccc(N3CCOCC3)c2C(=O)N1CCCNc1ccnc2cc(Cl)ccc12 [4j]
no (0)

Proceed to O=C1c2ccc(N3CCOCC3)cc2C(=O)N1CCCNc1ccnc2cc(Cl)ccc12 [4n]
no (0)

Next:
I'd appreciate it if you could check whether O=C1c2cccc(N3CCCCC3)c2C(=O)N1CCCNc1ccnc2cc(Cl)ccc12 [4b] has IC50 smaller than 100 µM.
yes (1)

Proceed to O=C1c2ccc(N3CCCCC3)cc2C(=O)N1CCCNc1ccnc2cc(Cl)ccc12 [4f]
yes (1)

Proceed to O=C1c2cccc(N3CCOCC3)c2C(=O)N1CCCCCCNc1ccnc2cc(Cl)ccc12 [4l]
yes (1)
